Source of measurements: patent US20010008892A1

target: HIV-1 protease (Human immunodeficiency virus type 1 group M subtype B, UniProt P04585); assay: Fluorogenic assay for screening inhibitors of HIV protease; settings: compound concentration 0.5 nM; fluorogenic substrate 1.3 μM, pH 4.5, 30° C.
% Inhib. (0.5 nM) values, listed per item
READOUT_KIND: % Inhib. (0.5 nM) (%)

>>> assay_result("CC(C)c1nc(COC(=O)N[C@H](C(=O)N[C@@H](Cc2ccccc2)[C@H](O)CN2CCN(Cc3cccnc3)C[C@H]2C(=O)NC(C)(C)C)C(C)C)cs1")
60
>>> assay_result("CC(C)c1nc(COC(=O)N[C@H](C(=O)N[C@@H](Cc2ccccc2)[C@H](O)CN2CCN(Cc3ccc4c(c3)OCO4)C[C@H]2C(=O)NC(C)(C)C)C(C)C)cs1")
60
>>> assay_result("CC(C)c1nc(COC(=O)N[C@H](C(=O)N[C@@H](Cc2ccccc2)[C@H](O)CN2CCN(Cc3ccccc3)C[C@H]2C(=O)NC(C)(C)C)C(C)C)cs1")
66
>>> assay_result("COc1ccc(CN2CCN(C[C@@H](O)[C@H](Cc3ccccc3)NC(=O)[C@@H](NC(=O)OCc3cnc(C)s3)C(C)C)[C@H](C(=O)NC(C)(C)C)C2)cc1OC")
44
>>> assay_result("CC(C)c1nc(COC(=O)N[C@H](C(=O)N[C@@H](Cc2ccccc2)[C@H](O)CN2CCN(Cc3nc4ccccc4[nH]3)C[C@H]2C(=O)NC(C)(C)C)C(C)C)cs1")
65
>>> assay_result("CC(C)c1nc(COC(=O)N[C@H](C(=O)N[C@@H](Cc2ccccc2)[C@H](O)CN2CCN(Cc3ccc4ccccc4n3)C[C@H]2C(=O)NC(C)(C)C)C(C)C)cs1")
70
>>> assay_result("CC(C)c1nc(COC(=O)N[C@H](C(=O)N[C@@H](Cc2ccccc2)[C@H](O)CN2CCN(Cc3ccc(F)cc3)C[C@H]2C(=O)NC(C)(C)C)C(C)C)cs1")
64
>>> assay_result("CC(C)c1nc(COC(=O)N[C@H](C(=O)N[C@@H](Cc2ccccc2)[C@H](O)CN2CCN(Cc3ccc(O)cc3)C[C@H]2C(=O)NC(C)(C)C)C(C)C)cs1")
54
>>> assay_result("COc1ccc(CN2CCN(C[C@@H](O)[C@H](Cc3ccccc3)NC(=O)[C@@H](NC(=O)OCc3csc(C(C)C)n3)C(C)C)[C@H](C(=O)NC(C)(C)C)C2)cc1OC")
62
>>> assay_result("Cc1nc(COC(=O)N[C@H](C(=O)N[C@@H](Cc2ccccc2)[C@H](O)CN2CCN(Cc3ccc(F)cc3)C[C@H]2C(=O)NC(C)(C)C)C(C)C)cs1")
50
